# Tgt: T1, UNK ZnF1-6 (called full-length) (human, UniProt Q9C0B0 30-357)
# T1 sequence: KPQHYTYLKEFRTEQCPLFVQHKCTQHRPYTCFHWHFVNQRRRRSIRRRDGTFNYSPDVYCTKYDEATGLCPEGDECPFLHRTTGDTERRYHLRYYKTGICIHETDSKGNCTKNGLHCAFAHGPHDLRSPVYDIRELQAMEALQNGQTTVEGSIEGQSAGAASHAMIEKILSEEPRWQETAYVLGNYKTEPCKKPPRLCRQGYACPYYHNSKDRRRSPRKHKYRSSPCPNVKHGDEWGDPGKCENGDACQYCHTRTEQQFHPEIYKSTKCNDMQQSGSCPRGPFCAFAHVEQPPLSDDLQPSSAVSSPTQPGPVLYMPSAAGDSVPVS
# Test summary: nsRBNS (natural sequence RNA bind-n-seq); RBNS binding buffer (assumed for nsRBNS): 25 mM Tris pH 7.5, 150 mM KCl, 3 mM MgCl2, 0.01% Triton X-100, 500 ug/ml BSA, 20 U/ml SUPERase-In, 4 C; UNK is unkempt and MSI1 is Musashi-1; names of the RNAs are library labels; protein concentration not given here; high values mean tight binding
In all, about 5,800 sequences were measured (“enrichment r”: median about 0.68, highest 2% from about 11 on). For the sample, the highest values were picked, then their nearest neighbours and some sequences at random.
Result type: log10 of binding signal (log10 of the value in enrichment R)
For clarity, the numbers are log10 values of binding signal expressed in enrichment R.

// query Provide measured log10 of binding signal value, entry: chr3:168010103:168010202:-|3pUTR|ENSG00000173905|msi1_unk|FALSE|overlapping (ssRNA) RNA: GGGAGUUCUACAGUCCGACGAUCGCUCAAACAUAAAUCUGCCUACUGAACUCUAGGAUAUUUAAUUACAAAAAUUAAGAACUUAGACUUUUUUAAAACUUUUGUAUUAGAAAUGCGCAUACAUUUAUAUGAAUAUAUUUUGAUCAACAGAGGAUUGAGCAUCA
// result 1.10

// query Provide measured log10 of binding signal value, entry: chr6:105100707:105100870:-|3pUTR|ENSG00000112276|msi1|FALSE|unique (ssRNA) RNA: GGGAGUUCUACAGUCCGACGAUCUGAGAUAUAUAUUUUCACAGUCUUUUCUAGAUAUAUUAUUGUUUUAACUUAACAAAUCUUAGCAAUCUCUCAAUGCCUUUUCACUUAUUUUUUUCCAAGUUAUGAUUCUUUUUCCUCACACAACAGAGGAUUGAGCAUCA
// result 1.27

// query Provide measured log10 of binding signal value, entry: chr9:5123879:5124511:-|three_prime_utr|ENSG00000120210|control|control|control (ssRNA) RNA: GGGAGUUCUACAGUCCGACGAUCCUGGUAAAUUGGAUUGCCAUAUGCAGAAGAAUGAAACUGGACCCAUAUUUAUCACCAUAUAGAAAAAUUAACUCGAUCGAUUACAGACUUAAAUGUAAGAUCUGAAACUAGAAAAAUACUCAACAGAGGAUUGAGCAUCA
// result 1.34

// query Provide measured log10 of binding signal value, entry: chr20:59325757:59325866:+|3pUTR|ENSG00000124205|unk|FALSE|unique (ssRNA) RNA: GGGAGUUCUACAGUCCGACGAUCUUAUGUGGAUCUGUUCAAAGUAGUCACUGUAUAUACGUAUAGAGAGGUAGAUAGGUAGGUAGAUUUUAAAUUGCAUUCUGAAUACAAACUCAUACUCCUUAGAGCUUGAAUUACAUUUUUCAACAGAGGAUUGAGCAUCA
// result 1.31

// query Provide measured log10 of binding signal value, entry: chr17:63354981:63355093:+|CDS|ENSG00000170921|unk|total|mutant (ssRNA) RNA: GGGAGUUCUACAGUCCGACGAUCCAGUCAAGGGUCCUAUCUAUAUCUGAAACUUACAUUUGACCUCACCGAGAAAGGCUAUCCCGUGUUAAAGAGCUCCCGCUACAAAGCCGUUCCUGUUUCGCUCUCAGAGGUUUAUUUACUCAACAGAGGAUUGAGCAUCA
// result -0.18

***
// query Provide measured log10 of binding signal value, entry: chr11:118396625:118396726:+|3pUTR|ENSG00000110344|msi1|FALSE|bound_elsewhere (ssRNA) RNA: GGGAGUUCUACAGUCCGACGAUCAACUUGACAAUGCUCCCCUGGCUUGCAGGAAAUUAUACUUAUUAUAGCAUCACCAAGUUUAGAAAUCAUCACUAAUUUUCACCCUCUGUUGUCUCUUCAUAUUCUUCUUCCUUUUCCUAACAACAGAGGAUUGAGCAUCA
// result 0.63

// query Provide measured log10 of binding signal value, entry: chr17:3662948:3663056:-|3pUTR|ENSG00000213977|unk|total|mutant (ssRNA) RNA: GGGAGUUCUACAGUCCGACGAUCAGUUUGAUACAAAAUGUUUUUAUCGUACUCUUUGGAGAUGCCCAUUCUACUUUUGAAUUCCGCUUUUACUAAUUCGCAUCUGGAAGCUCAGCAAGUGCACAAGCCUUACUUUGGUUACCGCAACAGAGGAUUGAGCAUCA
// result -0.36
